System: Vero E6 infected with SARS-CoV-2
Test: inhibition of SARS-CoV-2 cytopathic effect; higher = more antiviral protection, active = above 15
Settings: 8.33 nM; 48 h
So I've got a bunch of molecules here, and I need their inhibition of SARS-CoV-2 cytopathic effect values.

Prompt: // query inhibition of SARS-CoV-2 cytopathic effect value for entry C/C=C/C[C@@H](C)C(=O)[C@H]1C(=O)N[C@@H](C(C)C)C(=O)N(C)CC(=O)N(C)[C@@H](CC(C)C)C(=O)N[C@@H](C(C)C)C(=O)N(C)[C@@H](CC(C)C)C(=O)N[C@@H](C)C(=O)N[C@H](C)C(=O)N(C)[C@@H](CC(C)C)C(=O)N(C)[C@@H](CC(C)C)C(=O)N(C)[C@@H](C(C)C)C(=O)N1C [valspodar]
Completion: -0.88% (inactive)

Prompt: // query inhibition of SARS-CoV-2 cytopathic effect value for entry CCn1c(=O)[nH]c2cc(Cl)c(Cl)cc21
Completion: 1.8% (inactive)

Prompt: // query inhibition of SARS-CoV-2 cytopathic effect value for entry O=C(O)CCn1c2c(c3ccccc31)C[C@H](NS(=O)(=O)c1ccc(F)cc1)CC2 [ramatroban]
Completion: 0.09% (inactive)

Prompt: // query inhibition of SARS-CoV-2 cytopathic effect value for entry COc1ccc(-c2ccc3cc(C(=O)O)ccc3c2)cc1C12CC3CC(CC(C3)C1)C2 [adapalene]
Completion: -0.29% (inactive)

Prompt: // query inhibition of SARS-CoV-2 cytopathic effect value for entry Oc1cc(CNC(=S)/C=C/c2cc(O)c(O)c(Br)c2)cc(O)c1O
Completion: 0.99% (inactive)

Prompt: // query inhibition of SARS-CoV-2 cytopathic effect value for entry CN(C)c1ccc(/C=C2\C(=O)Nc3ccccc32)cc1
Completion: -0.37% (inactive)

Prompt: // query inhibition of SARS-CoV-2 cytopathic effect value for entry CN1CC[C@@H](NC(=O)Nc2ccc(C#N)cc2)C[C@@H]1c1nc2ccccc2[nH]1 [glasdegib]
Completion: 1.32% (inactive)

Prompt: // query inhibition of SARS-CoV-2 cytopathic effect value for entry CC(Cc1ccc(O)cc1)NCC(O)c1cc(O)cc(O)c1 (stereo unspecified) [fenoterol]
Completion: 0.82% (inactive)

Prompt: // query inhibition of SARS-CoV-2 cytopathic effect value for entry Nc1n[nH]c2nc3ccccc3nc12 [CDK1-5-inhibitor]
Completion: 0.41% (inactive)

Prompt: // query inhibition of SARS-CoV-2 cytopathic effect value for entry Cc1ccc2c(c1)c1c3n2CCNC3CCC1 (stereo unspecified) [pirlindole]
Completion: -2.42% (inactive)

Prompt: // query inhibition of SARS-CoV-2 cytopathic effect value for entry CC(=O)N[C@@H](CS)C(=O)O [acetylcysteine]
Completion: 1.77% (inactive)

Prompt: // query inhibition of SARS-CoV-2 cytopathic effect value for entry CC(=O)OC[C@H]1O[C@@H](n2ccc(=O)[nH]c2=O)[C@H](OC(C)=O)[C@@H]1OC(C)=O [uridine-triacetate]
Completion: 0.37% (inactive)

Prompt: // query inhibition of SARS-CoV-2 cytopathic effect value for entry CC(C)[C@](O)(c1ccc2cc(OC(F)F)c(OC(F)F)cc2c1)c1c[nH]nn1
Completion: 2.28% (inactive)

Prompt: // query inhibition of SARS-CoV-2 cytopathic effect value for entry NC(=O)c1cccc(-c2cccc(OC(=O)NC3CCCCC3)c2)c1
Completion: 3.25% (inactive)

Prompt: // query inhibition of SARS-CoV-2 cytopathic effect value for entry N#Cc1cc(NC(=O)C(=O)O)c(Cl)c(NC(=O)C(=O)O)c1 [lodoxamide]
Completion: 1.86% (inactive)

Prompt: // query inhibition of SARS-CoV-2 cytopathic effect value for entry COc1cc(OC)cc(N(CCNC(C)C)c2ccc3ncc(-c4cnn(C)c4)nc3c2)c1 [erdafitinib]
Completion: -0.38% (inactive)

Prompt: // query inhibition of SARS-CoV-2 cytopathic effect value for entry O=c1[nH]c(=O)n([C@H]2C[C@H](O)[C@@H](CO)O2)cc1/C=C/Br [brivudine]
Completion: 0.21% (inactive)

Prompt: // query inhibition of SARS-CoV-2 cytopathic effect value for entry Cc1cccc(Nc2ccncc2S(=O)(=O)NC(=O)NC(C)C)c1 [torasemide]
Completion: -0.37% (inactive)

Prompt: // query inhibition of SARS-CoV-2 cytopathic effect value for entry C[C@@H](C(=O)O)c1ccc(-c2ccccc2)c(F)c1 (racemic) [flurbiprofen-(+/-)]
Completion: 0.72% (inactive)

Prompt: // query inhibition of SARS-CoV-2 cytopathic effect value for entry CCOC(=O)Nc1ccc(NCc2ccc(F)cc2)nc1N [flupirtine]
Completion: 0.58% (inactive)

Prompt: // query inhibition of SARS-CoV-2 cytopathic effect value for entry COc1ccc2[nH]c(-c3ccccc3)c(CCNC(C)=O)c2c1 [2-phenylmelatonin]
Completion: -1.88% (inactive)

Prompt: // query inhibition of SARS-CoV-2 cytopathic effect value for entry COc1ccnc(C[S+]([O-])c2nc3cc(OC(F)F)ccc3[nH]2)c1OC (stereo unspecified) [pantoprazole]
Completion: -2.35% (inactive)

Prompt: // query inhibition of SARS-CoV-2 cytopathic effect value for entry COc1cc2c(cc1OC)-c1c(C)c3ccc(OC)c(OC)c3c[n+]1CC2 [dehydrocorydaline]
Completion: 0.34% (inactive)

Prompt: // query inhibition of SARS-CoV-2 cytopathic effect value for entry N[C@@H](CCC(=O)N[C@@H](CSN=O)C(=O)NCC(=O)O)C(=O)O [S-nitrosoglutathione]
Completion: 0.8% (inactive)

Prompt: // query inhibition of SARS-CoV-2 cytopathic effect value for entry CC(C)(C(=O)O)c1ccc(C(O)CCCN2CCC(C(O)(c3ccccc3)c3ccccc3)CC2)cc1 (stereo unspecified) [fexofenadine]
Completion: -0.73% (inactive)

Prompt: // query inhibition of SARS-CoV-2 cytopathic effect value for entry CCC(CC)(CC(=O)Nc1cccc(/C=C/c2nc(C3CCC3)cs2)c1)C(=O)O [cinalukast]
Completion: 0.18% (inactive)
